Where do these numbers come from? They come from the supplement of paper PMC10567573.

# key: entry, value: protein stability index
B1: BTBD10 (parent)
chain: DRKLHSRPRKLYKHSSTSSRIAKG

Variants of: B1
Assay: protein stability index of a GFP-peptide fusion (GPS, HEK-293T) (PSI 1-6); higher = more stable;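 also: lentivirally expressed fusions sorted by FACS into six bins by GFP to DsRed ratio, PSI derived from sequencing read proportions per bin multiplied by bin number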
Conditions: c terminus: a fixed tail appended
READOUT LABEL: protein stability index

1. L11P    3.79
2. L4K    4.28
3. A22R    4.5
4. A22T    3.55
5. A22F    2.99
6. L11Q    4.13
7. Y12F    4.01
8. R20C    3.39
9. A22S    4.15
10. K13F    2.77
11. R2W    3.68
12. K3C    3.95
